- ASSAY NOTES: lysozyme-GFP induction in HOXA9-ER cells – HOXA9-ER marrow cells, GFP flow, set 1, SAR follow-up (AID 743181)
- TEST PARAMETERS: HOXA9-ER marrow cells, lysozyme-GFP differentiation, flow; at 10 µM (top of the series)
Active and inactive are the calls of the source.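 Rule for the calls: active = at least 15% GFP+ cells at the top dose together with an EC50 below 10 µM; inactive = the rest.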
Attribute: GFP+ cells, differentiation

CC(C)(C)OC(=O)NCCC(=O)N[C@H]1CCCc2ccccc21 | 1% (inactive)

Entry under review: CC(NC(=O)CCNC(=O)c1ccc(Cl)cc1)c1ccc(F)cc1 (stereo unspecified) . Reported GFP+ cells, differentiation?
1% (inactive)

Now give it for O=C(CCCNC(=O)c1ccc(OC(F)(F)F)cc1)N[C@@H]1CCCc2ccccc21 too.
1% (inactive)

====

- System: HOXA9-ER marrow cells, lysozyme-GFP differentiation, flow
- ASSAY NOTES: lysozyme-GFP induction in HOXA9-ER cells – HOXA9-ER marrow cells, GFP flow, set 1, SAR follow-up (AID 743181)
MEASURED ATTRIBUTE: EC50

Recorded results for 3 compounds are shown here.
COc1ccc(C(=O)NCCC(=O)N[C@@H]2CCCc3ccccc32)cc1 | 4.95 µM
O=C(CCNC(=O)c1ccc(Cl)cc1)NC1CCCc2ccccc21 (stereo unspecified) | 5.06 µM
O=C(CCNC(=O)c1ccc(OC(F)(F)F)cc1)N[C@@H]1CCCc2ccccc21 | 1.61 µM

Request body: readout EC50, system HOXA9-ER marrow cells, lysozyme-GFP differentiation, flow, query O=C(CCNC(=O)c1ccc(Cl)cc1)N[C@@H]1CCCc2ccccc21 . Return the value.
3.47 µM

Now give it for O=C(CCNC(=O)c1cccc(Cl)c1)N[C@@H]1CCCc2ccccc21 too.
5.42 µM

Now give it for Cc1ccc(C(=O)NCCC(=O)N[C@@H]2CCCc3ccccc32)cc1 too.
8.68 µM

Now give it for O=C(O)c1cccnc1Nc1ccc(Cl)cc1 too.
5.4 µM

Now give it for O=C(CCNC(=O)c1ccc(C(F)(F)F)cc1)N[C@@H]1CCCc2ccccc21 too.
2.63 µM

Now give it for O=C(CCNC(=O)c1ccc2c(c1)OC(F)(F)O2)N[C@@H]1CCCc2ccccc21 too.
4.69 µM

Now give it for O=C(CCNC(=O)c1ccc(Cl)cc1)N[C@@H]1CCc2ccccc21 too.
9.97 µM

Now give it for O=C(CCNC(=O)c1ccc(Cl)c(Cl)c1)N[C@@H]1CCCc2ccccc21 too.
3.24 µM

====

- ASSAY NOTES: lysozyme-GFP induction in HOXA9-ER cells – HOXA9-ER marrow cells, GFP flow, set 1, SAR follow-up (AID 743181)
- TEST PARAMETERS: HOXA9-ER marrow cells, lysozyme-GFP differentiation, flow; at 10 µM (top of the series)
MEASURED ATTRIBUTE: GFP+ cells, differentiation (%)
Record the value in %, omitting the unit from your answer.

CC(=O)NCCC(=O)N[C@@H]1CCCc2ccccc21 | 0

Entry under review: O=C(NC1CCOc2ccccc21)C1CCCN(C(=O)c2ccc(Cl)cc2)C1 (stereo not drawn) . Reported GFP+ cells, differentiation?
1

Now give it for Cc1ccc(C)c(OCCn2cc(C(=O)O)c3ccccc32)c1 too.
0

====

- ASSAY NOTES: lysozyme-GFP induction in HOXA9-ER cells – HOXA9-ER marrow cells, GFP flow, set 1, SAR follow-up (AID 743181)
- TEST PARAMETERS: HOXA9-ER marrow cells, lysozyme-GFP differentiation, flow; at 10 µM (top of the series)
MEASURED ATTRIBUTE: GFP+ cells, differentiation (%)
Record the value in %, omitting the unit from your answer.

Entry under review: CC(C)(C)OC(=O)NCCC(=O)N[C@@H]1CCCc2ccccc21 . Reported GFP+ cells, differentiation?
1

This collection of values is drawn from PubChem BioAssay AID743181.
